Target: Human G9a (Homo sapiens, UniProt Q96KQ7)
Sequence (Q96KQ7 786-1210 limits assumed): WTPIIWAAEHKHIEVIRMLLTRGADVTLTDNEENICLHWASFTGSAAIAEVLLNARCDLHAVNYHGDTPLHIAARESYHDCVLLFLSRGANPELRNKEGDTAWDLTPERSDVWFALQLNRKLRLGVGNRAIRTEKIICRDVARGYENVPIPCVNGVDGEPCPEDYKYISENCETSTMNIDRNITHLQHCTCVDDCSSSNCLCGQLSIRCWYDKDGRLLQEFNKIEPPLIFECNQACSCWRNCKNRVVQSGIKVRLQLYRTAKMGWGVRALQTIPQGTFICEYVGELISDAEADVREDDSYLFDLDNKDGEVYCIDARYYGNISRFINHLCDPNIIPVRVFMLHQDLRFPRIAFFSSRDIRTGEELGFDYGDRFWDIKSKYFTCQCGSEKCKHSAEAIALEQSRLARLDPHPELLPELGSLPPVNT
Experiment: G9a assay (3H-AdoMet filter-binding)
Format: biochemical
Settings: 200.0 μM
Quick list: inhibition at 200 µM per entry.

{"structure": "CN1CCCN(c2nc(NC3CCN(Cc4ccccc4)CC3)c3ccccc3n2)CC1", "inhibition at 200 µM, %": 16.4}
{"structure": "c1ccc(CN2CCC(Nc3nc(N4CCN(c5ccccc5)CC4)nc4ccccc34)CC2)cc1", "inhibition at 200 µM, %": 23.8}
{"structure": "c1ccc(CN2CCC(Nc3nc(N4CCN(c5ccccn5)CC4)nc4ccccc34)CC2)cc1", "inhibition at 200 µM, %": 29.2}
{"structure": "c1ccc(CN2CCC(Nc3nc(N4CCCC4)nc4ccccc34)CC2)cc1", "inhibition at 200 µM, %": 49.5}

Data credit: paper PMC4014597
